tgt: recombinant PRL-2 (Homo sapiens, UniProt Q12974)
Construct: 6xHis (N, cleaved yes); made in house; host or cells: E. coli One Shot BL21 Star
protocolText: In vitro phosphatase assay (DiFMUP hydrolysis), PRL-2
Format: biochemical
measurementConditions: FDA-approved drug screen; activity compared to DMSO
Counter-ions that a name gives are not always drawn.
assayReadout: % Phosphatase Activity (compared to DMSO) PRL-2 (%)
Give the number; % is assumed, so skip it.

CN[C@@H]1[C@@H](O)[C@@H](O[C@@H]2[C@@H](O)[C@H](O[C@H]3OC(CN)=CC[C@H]3N)[C@@H](N)C[C@H]2N)OC[C@]1(C)O [Sisomicin sulfate] ... 84
CCCCC(=O)N(Cc1ccc(-c2ccccc2-c2nnn[nH]2)cc1)[C@H](C(=O)O)C(C)C ... 115
CN1CC(=O)N2[C@H](c3ccc4c(c3)OCO4)c3[nH]c4ccccc4c3C[C@@H]2C1=O ... 97
Cc1cc(C(C)(C)C)cc(C)c1CC1=NCCN1 [Xylometazoline HCl] ... 117
CN[C@H](CC(C)C)C(=O)N[C@H]1C(=O)N[C@@H](CC(N)=O)C(=O)N[C@H]2C(=O)N[C@H]3C(=O)N[C@H](C(=O)N[C@H](C(=O)O)c4cc(O)cc(O)c4-c4cc3ccc4O)[C@H](O)c3ccc(c(Cl)c3)Oc3cc2cc(c3O[C@@H]2O[C@H](CO)[C@@H](O)[C@H](O)[C@H]2O[C@H]2C[C@](C)(N)[C@H](O)[C@H](C)O2)Oc2ccc(cc2Cl)[C@H]1O [Vancomycin HCl] ... 109

Now for a further compound.
### Prompt Give its % Phosphatase Activity (compared to DMSO) PRL-2 value. Item: `CCCSc1nc(N[C@@H]2C[C@H]2c2ccc(F)c(F)c2)c2nnn([C@@H]3C[C@H](OCCO)[C@@H](O)[C@H]3O)c2n1`
### Response 94

* * *

tgt: recombinant PRL-1 (Homo sapiens, UniProt Q93096)
Construct: 6xHis (N, cleaved yes); made in house; host or cells: E. coli One Shot BL21 Star
Sequence (Q93096 whole entry): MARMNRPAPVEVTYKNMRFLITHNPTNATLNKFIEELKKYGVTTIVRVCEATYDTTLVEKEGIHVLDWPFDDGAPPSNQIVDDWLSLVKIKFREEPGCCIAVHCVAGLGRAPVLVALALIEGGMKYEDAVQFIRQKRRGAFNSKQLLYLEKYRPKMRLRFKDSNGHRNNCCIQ
protocolText: In vitro phosphatase assay (DiFMUP hydrolysis), PRL-1
Type: biochemical
measurementConditions: FDA-approved drug screen; compared to DMSO
Counter-ions that a name gives are not always drawn.
assayReadout: % Phosphatase Activity (compared to DMSO) PRL-1 (%)
Give the number; % is assumed, so skip it.

These solved cases illustrate the format of a correct answer.
O=C1c2cccc3c2[C@H](CCC3)CN1[C@@H]1CN2CCC1CC2 [Palonosetron HCl] ... 90
CCOC(=O)O[C@]1(C(=O)OCCl)CC[C@H]2[C@@H]3CCC4=CC(=O)C=C[C@]4(C)[C@H]3[C@@H](O)C[C@@]21C [Loteprednol etabonate] ... 100
COc1cc2c(cc1OC)CN(CCc1ccc(NC(=O)c3cccc4c(=O)c5cccc(OC)c5[nH]c34)cc1)CC2 ... 106
c1ccc2c(CC3=NCCN3)cccc2c1 [Naphazoline HCl] ... 100
[O-][n+]1cccc(CO)c1 [Mepiroxol] ... 100
C[C@H](Nc1ncnc2nc[nH]c12)c1cc2cccc(Cl)c2c(=O)n1-c1ccccc1 ... 107
CC(=O)N[C@@H](CS)C(=O)O ... 89
Oc1ccc(/C=C/c2cc(O)cc(O)c2)cc1 ... 107

### Prompt Give its % Phosphatase Activity (compared to DMSO) PRL-1 value. Item: `CCCCC1=NC2(CCCC2)C(=O)N1Cc1ccc(-c2ccccc2-c2nnn[nH]2)cc1`
### Response 95

* * *

Recorded % Phosphatase Activity (compared to DMSO) PRL-2 for the following compounds
tgt: recombinant PRL-2 (Homo sapiens)
Construct: 6xHis (N, cleaved yes); made in house; host or cells: E. coli One Shot BL21 Star
Sequence (Q12974 1-167): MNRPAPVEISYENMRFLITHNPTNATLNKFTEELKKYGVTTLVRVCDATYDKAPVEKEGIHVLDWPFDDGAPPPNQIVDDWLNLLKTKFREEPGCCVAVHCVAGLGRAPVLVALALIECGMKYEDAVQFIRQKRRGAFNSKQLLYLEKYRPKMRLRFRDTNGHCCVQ
protocolText: In vitro phosphatase assay (DiFMUP hydrolysis), PRL-2;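 further: PRL-2 activity read as DiFMUP hydrolysis after 20 min at room temperature with drug, enzyme first pre-reduced at 4 °C for 20 min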
Format: biochemical
measurementConditions: FDA-approved drug screen; compared to DMSO
Give the number; % is assumed, so skip it.

CN1CCN(CCCN2c3ccccc3Sc3ccc(Cl)cc32)CC1.O=C(O)/C=C\C(=O)O.O=C(O)/C=C\C(=O)O [Prochlorperazine dimaleate salt] ... 108
CC[C@H](NC(=O)[C@H](C)NC)C(=O)N1C[C@@H](O)C[C@H]1Cc1c(-c2[nH]c3cc(F)ccc3c2C[C@@H]2C[C@H](O)CN2C(=O)[C@H](CC)NC(=O)[C@H](C)NC)[nH]c2cc(F)ccc12 ... 129

Now for a further compound.
### Prompt Give its % Phosphatase Activity (compared to DMSO) PRL-2 value. Item: `Cc1cccc(C)c1NC(=O)CN1CCCC1=O`
### Response 95

* * *

tgt: recombinant PRL-3 (Homo sapiens, UniProt O75365)
Construct: 6xHis (N, cleaved yes); made in house; host or cells: E. coli One Shot BL21 Star
Sequence (O75365 whole entry): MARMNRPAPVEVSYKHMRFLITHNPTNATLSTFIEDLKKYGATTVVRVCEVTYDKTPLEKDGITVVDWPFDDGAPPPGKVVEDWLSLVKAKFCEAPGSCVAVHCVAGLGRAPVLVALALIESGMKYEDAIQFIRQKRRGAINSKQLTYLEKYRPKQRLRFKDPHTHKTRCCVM
protocolText: In vitro phosphatase assay (DiFMUP hydrolysis), PRL-3
Assay type: biochemical
measurementConditions: FDA-approved drug screen; compared to DMSO
Structures can show the parent of a compound that is named as a salt.
assayReadout: % Phosphatase Activity (compared to DMSO) PRL-3
Put your answer as a value accompanied by its unit after it.

These solved cases illustrate the format of a correct answer.
Cc1cccc(Cc2c[nH]cn2)c1C [Detomidine HCl] ... 81%
Oc1c(I)cc(I)c2cccnc12 [Diiodohydroxyquinoline] ... 81%
N=C(N)NC(=O)Cc1c(Cl)cccc1Cl [Guanfacine Hydrochloride] ... 96%
CN(C)c1ccc(C(=C2C=CC(=[N+](C)C)C=C2)c2ccc(N(C)C)cc2)cc1 [Crystal Violet] ... 85%

### Prompt What % Phosphatase Activity (compared to DMSO) PRL-3 appears in the records for this molecule with recombinant PRL-3 (Homo sapiens, UniProt O75365)? N[C@@H]1CON=C1O [D-Cycloserine]
### Response 95%

### Prompt What % Phosphatase Activity (compared to DMSO) PRL-3 appears in the records for this molecule with recombinant PRL-3 (Homo sapiens, UniProt O75365)? Cn1cc(C2=C(c3cn(C4CCN(Cc5ccccn5)CC4)c4ccccc34)C(=O)NC2=O)c2ccccc21 [Enzastaurin (LY317615)]
### Response 82%

### Prompt What % Phosphatase Activity (compared to DMSO) PRL-3 appears in the records for this molecule with recombinant PRL-3 (Homo sapiens, UniProt O75365)? NCCCCCC(=O)O [(6-)ε-Aminocaproic acid]
### Response 75%

### Prompt What % Phosphatase Activity (compared to DMSO) PRL-3 appears in the records for this molecule with recombinant PRL-3 (Homo sapiens, UniProt O75365)? CC1=CC(=O)c2ccccc2C1=O [Menadione]
### Response 62%

### Prompt What % Phosphatase Activity (compared to DMSO) PRL-3 appears in the records for this molecule with recombinant PRL-3 (Homo sapiens, UniProt O75365)? NS(=O)(=O)c1cc2c(cc1Cl)NCNS2(=O)=O [Hydrochlorothiazide]
### Response 76%

### Prompt What % Phosphatase Activity (compared to DMSO) PRL-3 appears in the records for this molecule with recombinant PRL-3 (Homo sapiens, UniProt O75365)? Cl.O=C(O)/C=C/c1ccc(Cn2ccnc2)cc1 [Ozagrel HCl]
### Response 81%

* * *

tgt: recombinant PRL-3 (Homo sapiens)
Construct: 6xHis (N, cleaved yes); made in house; host or cells: E. coli One Shot BL21 Star
protocolText: In vitro phosphatase assay (DiFMUP hydrolysis), PRL-3
Assay type: biochemical
measurementConditions: FDA-approved drug screen; activity compared to DMSO
Structures can show the parent of a compound that is named as a salt.
Note to self: % Phosphatase Activity (compared to DMSO) PRL-3 under 80% means class 1, ties and anything higher get class 0.

Cn1nnc(-c2ccc(-c3ccc(N4C[C@H](COP(=O)(O)O)OC4=O)cc3F)cn2)n1 [Tedizolid Phosphate] ... class 0
CN(C(=O)c1ccc(F)cc1C(F)(F)F)C1CCN(c2nnc(-c3ccnn3C)c3ccccc23)CC1 ... class 0

### Prompt Is % Phosphatase Activity (compared to DMSO) PRL-3 of `C[C@]1(Cn2ccnn2)[C@H](C(=O)O)N2C(=O)C[C@H]2S1(=O)=O` strictly below 80%?
### Response class 0

### Prompt Is % Phosphatase Activity (compared to DMSO) PRL-3 of CN1CCN(CCCN2c3ccccc3Sc3ccc(C(F)(F)F)cc32)CC1.Cl.Cl [Trifluoperazine 2HCl] strictly below 80%?
### Response class 0

### Prompt Is % Phosphatase Activity (compared to DMSO) PRL-3 of CC(C)(C)NCC(O)c1cc(O)cc(O)c1 (stereo not drawn) [Terbutaline Sulfate] strictly below 80%?
### Response class 0

### Prompt Is % Phosphatase Activity (compared to DMSO) PRL-3 of CC(C)[C@H](N)C(=O)OCC(CO)OCn1cnc2c(=O)nc(N)[nH]c21 (stereo partly drawn) [Valganciclovir HCl] strictly below 80%?
### Response class 1

### Prompt Is % Phosphatase Activity (compared to DMSO) PRL-3 of CC[C@]1(O)C[C@@H]2CN(CCc3c([nH]c4ccccc34)[C@@](C(=O)OC)(c3cc4c(cc3OC)N(C)[C@H]3[C@@](O)(C(=O)OC)[C@H](OC(C)=O)[C@]5(CC)C=CCN6CC[C@]43[C@@H]65)C2)C1 [Vinblastine sulfate] strictly below 80%?
### Response class 0
